experiment: Partition coefficient between 1-octanol and water containing phosphate buffer at pH 7.4; format: physicochemical; conditions: 1-octanol/water containing phosphate buffer
Recorded logD for the following compounds
Number, no unit, nothing else.

- compound: "COC12[C@@H]3N[C@@H]3CN1C1=C(C(=O)C(Nc3cccc(Cl)c3)=C(C)C1=O)[C@@H]2COC(N)=O (some centres undefined)"
  logD: 2.01
- compound: "[H][C@@]12CN3c4c(O)c(C)c(/N=C5C=C/C(=N/C(N)=O)C=C\\5)c(O)c4[C@H](COC(N)=O)C3(OC)[C@]1([H])N2 (some centres undefined)"
  logD: 0
- compound: "COC12[C@@H]3N[C@@H]3CN1c1c(O)c(C)c(N=C3C=CC(=N)C=C3)c(O)c1[C@@H]2COC(N)=O (some centres undefined)"
  logD: 0.07

Moving on to the next compound.
Request: // lookup logD for COC12[C@@H]3N[C@@H]3CN1C1=C(C(=O)C(Nc3ccc(S(N)(=O)=O)cc3)=C(C)C1=O)[C@@H]2COC(N)=O (some centres undefined)
Result: -0.52

* * *

assay: Distribution between 1-octanol and water containing phosphate buffer at pH 7.4; format: physicochemical; conditions: 1-octanol/water containing phosphate buffer
measured property: logD
Number, no unit, nothing else.

- compound: "COc1ccc(NC2=C(C)C(=O)C3=C(C2=O)[C@H](COC(N)=O)C2(OC)[C@@H]4N[C@@H]4CN32)cn1 (some centres not stated)"
  logD: 0.59
- compound: "COC12[C@@H]3N[C@@H]3CN1c1c(O)c(C)c(/N=C3/C=CC(=N)N=C3)c(O)c1[C@@H]2COC(N)=O (some centres not stated)"
  logD: -0.32
- compound: "COC12[C@@H]3N[C@@H]3CN1C1=C(C(=O)C(Nc3nc(C)cs3)=C(C)C1=O)[C@@H]2COC(N)=O (some centres not stated)"
  logD: 1.16
- compound: "COC12[C@@H]3N[C@@H]3CN1C1=C(C(=O)C(Nc3cccnc3)=C(C)C1=O)[C@@H]2COC(N)=O (some centres not stated)"
  logD: 0.52
- compound: "COC12[C@@H]3N[C@@H]3CN1C1=C(C(=O)C(Nc3nccs3)=C(C)C1=O)[C@@H]2COC(N)=O (some centres not stated)"
  logD: 0.62
- compound: "COC12[C@@H]3N[C@@H]3CN1C1=C(C(=O)C(Nc3nc(C)c(C)s3)=C(C)C1=O)[C@@H]2COC(N)=O (some centres not stated)"
  logD: 1.29

Moving on to the next compound.
Request: // lookup logD for COC12[C@@H]3N[C@@H]3CN1C1=C(C(=O)C(Nc3cc(C)ns3)=C(C)C1=O)[C@@H]2COC(N)=O (some centres not stated)
Result: -0.3

* * *

species on record: Mus musculus; test: Maximum percent T/C (antitumor activity) against P388 leukemia cells for Mitomycin C. The number of 30-day survivors is given in the parenthesis.; format: functional
measured property: T/C (%)
Report the figure in % without appending any unit label.

- compound: "COC12[C@@H]3N[C@@H]3CN1c1c(O)c(C)c(N=C3C=CC(=N)C=C3)c(O)c1[C@@H]2COC(N)=O (stereo not given in full)"
  T/C, %: 250
- compound: "COc1ccc(NC2=C(C)C(=O)C3=C(C2=O)[C@H](COC(N)=O)C2(OC)[C@@H]4N[C@@H]4CN32)cc1 (stereo not given in full)"
  T/C, %: 268
- compound: "COC12[C@@H]3N[C@@H]3CN1C1=C(C(=O)C(N=C3C=CC(=Nc4c(C)c(O)c5c(c4O)[C@H](COC(N)=O)C4(OC)[C@@H]6N[C@@H]6CN54)C=C3)=C(C)C1=O)[C@@H]2COC(N)=O (stereo not given in full)"
  T/C, %: 250
- compound: "[H][C@@]12CN3c4c(O)c(C)c(/N=C5C=C/C(=N\\CC(=O)O)C=C/5)c(O)c4[C@H](COC(N)=O)C3(OC)[C@]1([H])N2 (stereo not given in full)"
  T/C, %: 294

Request: // lookup T/C for COC12[C@@H]3N[C@@H]3CN1C1=C(C(=O)C(Nc3ccc(Cl)cc3)=C(C)C1=O)[C@@H]2COC(N)=O (stereo not given in full)
Result: 250

* * *

organism: Mus musculus; test: Maximum percent T/C (antitumor activity) against P388 leukemia cells for the compound. The number of 30-day survivors is given in the parenthesis.; assay type: functional
measured property: T/C (%)
Report the figure in % without appending any unit label.

Request: // lookup T/C for [H][C@@]12CN3c4c(O)c(C)c(/N=C5C=C/C(=N\CC(=O)O)C=C/5)c(O)c4[C@H](COC(N)=O)C3(OC)[C@]1([H])N2 (stereo partly specified)
Result: 322

Request: Next record, please: COC12[C@@H]3N[C@@H]3CN1c1c(O)c(C)c(/N=C3/C=CN=N3)c(O)c1[C@@H]2COC(N)=O (stereo partly specified)
Result: 333

Request: Next record, please: COc1ccc(NC2=C(C)C(=O)C3=C(C2=O)[C@H](COC(N)=O)C2(OC)[C@@H]4N[C@@H]4CN32)cc1 (stereo partly specified)
Result: 316

* * *

Recorded logD for the following compounds
assay: Partition coefficient between 1-octanol and water containing phosphate buffer at pH 7.4; format: physicochemical; conditions: 1-octanol/water containing phosphate buffer
Number, no unit, nothing else.

Example cases with answers are listed next.
- compound: "COc1cccc(NC2=C(C)C(=O)C3=C(C2=O)[C@H](COC(N)=O)C2(OC)[C@@H]4N[C@@H]4CN32)c1 (some centres undefined)"
  logD: 1.28
- compound: "COC12[C@@H]3N[C@@H]3CN1C1=C(C(=O)C(Nc3cccc(C#N)c3)=C(C)C1=O)[C@@H]2COC(N)=O (some centres undefined)"
  logD: 0.73

Request: // lookup logD for [H][C@@]12CN3c4c(O)c(C)c(/N=C5C=C/C(=N\CC(=O)O)C=C/5)c(O)c4[C@H](COC(N)=O)C3(OC)[C@]1([H])N2 (some centres undefined)
Result: -0.78

Request: Next record, please: COC12[C@@H]3N[C@@H]3CN1C1=C(C(=O)C(Nc3ccc(F)cc3)=C(C)C1=O)[C@@H]2COC(N)=O (some centres undefined)
Result: 1.44

* * *

assay: Partition coefficient between 1-octanol and water containing phosphate buffer at pH 7.4; type: physicochemical; details: 1-octanol/water containing phosphate buffer
Recorded logD for the following molecules
Number, no unit, nothing else.

Example cases with answers are listed next.
- molecule: "[H][C@@]12CN3c4c(O)c(C)c(/N=C5C=C/C(=N\\C(C)=O)C=C/5)c(O)c4[C@H](COC(N)=O)C3(OC)[C@]1([H])N2 (some centres undefined)"
  measured property: "logD"
  reported value: 0.33
- molecule: "COC12[C@@H]3N[C@@H]3CN1C1=C(C(=O)C(Nc3cccc(NC(C)=O)c3)=C(C)C1=O)[C@@H]2COC(N)=O (some centres undefined)"
  measured property: "logD"
  reported value: 0.33

Request: // lookup logD for COC12[C@@H]3N[C@@H]3CN1C1=C(C(=O)C(Nc3ccc(Cl)cc3)=C(C)C1=O)[C@@H]2COC(N)=O (some centres undefined)
Result: 2.01

Request: Next record, please: COC12[C@@H]3N[C@@H]3CN1C1=C(C(=O)C(Nc3cccc(C)c3)=C(C)C1=O)[C@@H]2COC(N)=O (some centres undefined)
Result: 1.83

* * *

species on record: Mus musculus; test: Maximum percent T/C (antitumor activity) against P388 leukemia cells for the compound. The number of 30-day survivors is given in the parenthesis.; assay type: functional
measured property: T/C

Example cases with answers are listed next.
- compound: "[H][C@@]12CN3c4c(O)c(C)c(/N=C5C=C/C(=N\\C(C)=O)C=C/5)c(O)c4[C@H](COC(N)=O)C3(OC)[C@]1([H])N2 (stereo partly drawn)"
  T/C: ">333%"
- compound: "COC12[C@@H]3N[C@@H]3CN1c1c(O)c(C)c(N=C3C=CC(=N)C=C3)c(O)c1[C@@H]2COC(N)=O (stereo partly drawn)"
  T/C: ">337%"

Moving on to the next compound.
Request: // lookup T/C for COc1ccc(NC2=C(C)C(=O)C3=C(C2=O)[C@H](COC(N)=O)C2(OC)[C@@H]4N[C@@H]4CN32)cc1OC (stereo partly drawn)
Result: >333%

* * *

assay: Partition coefficient between 1-octanol and water containing phosphate buffer at pH 7.4; type: physicochemical; settings: 1-octanol/water containing phosphate buffer
measured property: logD
Number, no unit, nothing else.

Request: // lookup logD for COC12[C@@H]3N[C@@H]3CN1C1=C(C(=O)C(Nc3ccccc3)=C(C)C1=O)[C@@H]2COC(N)=O (stereo not given in full)
Result: 1.3

Request: Next record, please: COC12[C@@H]3N[C@@H]3CN1c1c(O)c(C)c(N=C3C=CC(=S)C=C3)c(O)c1[C@@H]2COC(N)=O (stereo not given in full)
Result: 1.69

Request: Next record, please: COC12[C@@H]3N[C@@H]3CN1C1=C(C(=O)C(Nc3ccc(C)cc3)=C(C)C1=O)[C@@H]2COC(N)=O (stereo not given in full)
Result: 1.86

Request: Next record, please: COc1ccc(NC2=C(C)C(=O)C3=C(C2=O)[C@H](COC(N)=O)C2(OC)[C@@H]4N[C@@H]4CN32)cc1 (stereo not given in full)
Result: 1.28

Request: Next record, please: COC12[C@@H]3N[C@@H]3CN1C1=C(C(=O)C(Nc3ccc(I)cc3)=C(C)C1=O)[C@@H]2COC(N)=O (stereo not given in full)
Result: 2.42

Request: Next record, please: COC12[C@@H]3N[C@@H]3CN1C1=C(C(=O)C(Nc3ccc([N+](=O)[O-])cc3)=C(C)C1=O)[C@@H]2COC(N)=O (stereo not given in full)
Result: 1.02
